Give reverse-splicing fitness for every item shown.
B1: Azoarcus group I ribozyme (parent)
chain: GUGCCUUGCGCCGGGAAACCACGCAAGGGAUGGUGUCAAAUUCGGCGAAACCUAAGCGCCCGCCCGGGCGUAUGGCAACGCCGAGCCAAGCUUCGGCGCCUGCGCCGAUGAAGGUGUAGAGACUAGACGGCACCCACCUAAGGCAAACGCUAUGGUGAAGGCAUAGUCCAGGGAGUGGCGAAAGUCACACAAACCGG

Variants of: B1
Test method notes: reverse-splicing fitness (ratio to wild type); higher = more active; in vitro selection; Mg2+ level not given
Answer with the value's number alone.

So, C82U A111C A120G A145C C150U C169A ? Its reverse-splicing fitness was 0.00786

So, A111C A120U A145C C150A C169G ? Its reverse-splicing fitness was 0.0044

So, A111G A120C A145C C150G C169G U176A ? Its reverse-splicing fitness was 0.00746

So, A111G A145U C150U C169G U176C ? Its reverse-splicing fitness was 0.0325

So, C82U A111C A120C C169U ? Its reverse-splicing fitness was 0.0127

So, C82A A111C A120C C150A C169A U176C ? Its reverse-splicing fitness was 0.0181

So, C82G A111U A120C A145U C169G U176A ? Its reverse-splicing fitness was 0.0154

So, C82G A111G A120C A145C C169A U176G ? Its reverse-splicing fitness was 0.00459

So, A111U A120G A145G C150U C169U U176C ? Its reverse-splicing fitness was 0.0447

So, C82G A111U A120U A145C C150G U176A ? Its reverse-splicing fitness was 0.00296

So, C82G A111U A120C A145U C150G C169U ? Its reverse-splicing fitness was 0.00954

So, C82G A120U A145C C150U ? Its reverse-splicing fitness was 0.0385

So, A111U A120U A145G C150G C169U U176A ? Its reverse-splicing fitness was 0.00644

So, C82A A111U A120C A145U C150G U176A ? Its reverse-splicing fitness was 0.00752

So, C82G A111G A120G A145G C150A C169G U176C ? Its reverse-splicing fitness was 0.0272

So, C82A A111G A145U C150G C169G ? Its reverse-splicing fitness was 0.00749

So, C82A A111G A120C C150G C169G U176C ? Its reverse-splicing fitness was 0.00485

So, C82U A111G A120G A145C C169G U176C ? Its reverse-splicing fitness was 0.0158

So, C82U A111U A120G A145C C150A C169G ? Its reverse-splicing fitness was 0.00785

So, C82U A111C A120U A145U C150G C169G ? Its reverse-splicing fitness was 0.00306

So, C82G A111U A120U C150G C169A ? Its reverse-splicing fitness was 0.00722

So, C82U A111U A120C A145U C169U U176C ? Its reverse-splicing fitness was 0.0136

So, C82U A111G A145G C150A C169A U176C ? Its reverse-splicing fitness was 0.0247

So, A111G A120U C150A C169A ? Its reverse-splicing fitness was 0.00359

So, C82U A145G C169A ? Its reverse-splicing fitness was 0.00962

So, C82U A120U A145U C169A ? Its reverse-splicing fitness was 0.00208

So, C82G A111G A120U A145C C150G C169A U176C ? Its reverse-splicing fitness was 0.00236

So, C82U A111U A120C A145G C150U ? Its reverse-splicing fitness was 0.0229

So, C82A A111C A120U A145U C150A C169U ? Its reverse-splicing fitness was 0.00332

So, C82G A111G A120U C150A C169U U176C ? Its reverse-splicing fitness was 0.00456

So, C82A C150U C169G U176G ? Its reverse-splicing fitness was 0.00542

So, C82U A111C A120G A145U U176C ? Its reverse-splicing fitness was 0.0192

So, A120U A145C C150G C169A U176G ? Its reverse-splicing fitness was 0.00186

So, C82G A111C A120C A145C C150G U176G ? Its reverse-splicing fitness was 0.00325

So, A111U A120U C150A C169U U176A ? Its reverse-splicing fitness was 0.00638
